The following substances are listed with their measured % inhibition of SMAD7 mRNA expression values.
- Test system: human SMAD7 mRNA
- Assay overview: Dose-dependent inhibition of human SMAD7 mRNA expression in Hep3B cells (Example 3, Study 1 and 2)
- Type: cell-based
- Protocol conditions: 740 nM, electroporation, approximately 16 hours, Study 2, relative to untreated control cells
Strand notation (5' to 3'): a small letter for the sugar, then the base; units joined by * are phosphorothioate-linked, units joined directly phosphodiester-linked; [ ] holds rarer units or linkages, { } end groups; capitals alone tell only the bases. k = constrained ethyl (cEt); [5mC] = 5-methylcytosine; d = 2'-deoxy (DNA)
Please format your answer as a value with the unit trailing.

Solved entries:
substance="830037 (antisense CTATTGGCTGATCTGG; 3-10-3 cEt gapmer, further chemistry not given here) [compound 830037]" attribute_measured="% inhibition of SMAD7 mRNA expression" measurement=30%
substance="798686 (antisense kG*kA*kG*dG*dA*dG*dG*d[5mC]*dG*dA*dG*dG*dA*kG*kA*kA) [compound 798686]" attribute_measured="% inhibition of SMAD7 mRNA expression" measurement=0%
substance="799669 (antisense kT*kA*kT*dG*dA*d[5mC]*dA*dG*dA*dT*dG*d[5mC]*d[5mC]*kA*kG*k[5mC]) [compound 799669]" attribute_measured="% inhibition of SMAD7 mRNA expression" measurement=47%

// moving on: another record for % inhibition of SMAD7 mRNA expression
% inhibition of SMAD7 mRNA expression recorded for this substance, 799668 (antisense kG*kA*k[5mC]*dA*dG*dA*dT*dG*d[5mC]*d[5mC]*dA*dG*d[5mC]*kA*kA*kG) [compound 799668] , is 15%

----------
- Test system: human SMAD7 mRNA
- Assay overview: Antisense inhibition of human SMAD7 mRNA expression in Hep3B cells by 3-10-3 cEt gapmers, 10,000 nM, electroporation (Example 2)
- Type: cell-based
- Protocol conditions: Hep3B cells, 10,000 nM antisense oligonucleotide, electroporation, approximately 24 hours, RT-PCR primer probe set RTS5062, relative to untreated control cells
Strand notation (5' to 3'): a small letter for the sugar, then the base; units joined by * are phosphorothioate-linked, units joined directly phosphodiester-linked; [ ] holds rarer units or linkages, { } end groups; capitals alone tell only the bases. k = constrained ethyl (cEt); [5mC] = 5-methylcytosine; d = 2'-deoxy (DNA)
Kindly note that classification relies on % Inhibition with these boundaries: band 1 = under 20%, band 2 = from 20% up to 50%, band 3 = 50% and over

substance="799859 (kT*kG*kT*dA*dA*dT*dT*dT*dA*dG*d[5mC]*dA*dA*kT*kT*k[5mC]; antisense) [compound 799859]" measurement_target="human SMAD7 mRNA" class_assignment="band 2"

Problem: For this substance, which bin applies? 800034 (k[5mC]*k[5mC]*kG*d[5mC]*dA*d[5mC]*dG*dA*d[5mC]*dA*dT*d[5mC]*d[5mC]*k[5mC]*k[5mC]*k[5mC]; antisense) [compound 800034]
Solution: band 2

Problem: For this substance, which bin applies? 799858 (kG*kT*kA*dA*dT*dT*dT*dA*dG*d[5mC]*dA*dA*dT*kT*k[5mC]*k[5mC]; antisense) [compound 799858]
Solution: band 3

Problem: For this substance, which bin applies? 799899 (antisense kA*kA*kG*dT*d[5mC]*dT*d[5mC]*dT*dT*dA*d[5mC]*d[5mC]*dT*k[5mC]*kA*k[5mC]) [compound 799899]
Solution: band 2

Problem: For this substance, which bin applies? 799892 (antisense kG*k[5mC]*kA*dT*d[5mC]*dA*dT*dT*dA*dA*dG*d[5mC]*d[5mC]*kA*kA*kT) [compound 799892]
Solution: band 3

Problem: For this substance, which bin applies? 799917 (antisense kT*kG*kG*dA*dG*dA*dA*dT*dG*dT*dA*dA*dT*kT*kG*kA) [compound 799917]
Solution: band 1

Problem: For this substance, which bin applies? 799932 (antisense kT*k[5mC]*kA*dA*dG*dA*dG*dA*d[5mC]*dG*dG*dT*dG*kA*kG*k[5mC]) [compound 799932]
Solution: band 1

Problem: For this substance, which bin applies? 799914 (antisense k[5mC]*kT*kG*dA*dG*dA*dG*dA*dG*dG*d[5mC]*d[5mC]*dT*k[5mC]*kA*kG) [compound 799914]
Solution: band 2

src = patent US10517889B2
